Assay: Salt/co-crystal screening: 38 acids, eight solvent systems, solids analysed by XRPD
Assay type: physicochemical
Conditions: Methanol/H2O (19:1, v/v); acid/freebase charge 1:1 unless label says 2:1; stirred at RT, else 5° C. slurry, anti-solvent addition or evaporation (footnote marks)
Measured quantity: Solid obtained in salt screening (XRPD), solvent G Methanol/H2O (19:1, v/v)

Example compounds with recorded Solid obtained in salt screening (XRPD), solvent G Methanol/H2O (19:1, v/v):
GET /value?item= O=C(O)C(=O)O &field=Solid obtained in salt screening (XRPD), solvent G Methanol/H2O (19:1, v/v) returns gel*

GET /value?item= O=C(O)CCCC(=O)O &field=Solid obtained in salt screening (XRPD), solvent G Methanol/H2O (19:1, v/v) returns amorphous*

GET /value?item= O=C(O)CNC(=O)c1ccccc1 &field=Solid obtained in salt screening (XRPD), solvent G Methanol/H2O (19:1, v/v) returns amorphous*

GET /value?item= O=C(O)CCC(=O)O &field=Solid obtained in salt screening (XRPD), solvent G Methanol/H2O (19:1, v/v) returns amorphous*

GET /value?item= O=C(O)/C=C\C(=O)O &field=Solid obtained in salt screening (XRPD), solvent G Methanol/H2O (19:1, v/v) returns amorphous*

***
GET /value?item= O=C(O)CCCCC(=O)O &field=Solid obtained in salt screening (XRPD), solvent G Methanol/H2O (19:1, v/v) returns amorphous*

GET /value?item= CCCCCCCCCCCCCCCC(=O)O &field=Solid obtained in salt screening (XRPD), solvent G Methanol/H2O (19:1, v/v) returns FB Type A^&

GET /value?item= CS(=O)(=O)O &field=Solid obtained in salt screening (XRPD), solvent G Methanol/H2O (19:1, v/v) returns gel*

GET /value?item= O=C(O)[C@H](O)c1ccccc1 &field=Solid obtained in salt screening (XRPD), solvent G Methanol/H2O (19:1, v/v) returns amorphous*

GET /value?item= CCC(=O)O &field=Solid obtained in salt screening (XRPD), solvent G Methanol/H2O (19:1, v/v) returns FB Type A^&

GET /value?item= O=C(O)c1ccccc1 &field=Solid obtained in salt screening (XRPD), solvent G Methanol/H2O (19:1, v/v) returns amorphous*

GET /value?item= O=C(O)/C=C/C(=O)O &field=Solid obtained in salt screening (XRPD), solvent G Methanol/H2O (19:1, v/v) returns amorphous*

GET /value?item= O=C(O)C[C@H](O)C(=O)O &field=Solid obtained in salt screening (XRPD), solvent G Methanol/H2O (19:1, v/v) returns amorphous*

====

Experiment: Differential scanning calorimetry (DSC) endotherms of crystalline hits
Type: physicochemical
Conditions: onset temperature
Measured quantity: DSC Endo. (onset, ° C.) (°C)
Supply the numeric figure in °C, leaving out any unit text.

GET /value?item= CCCCc1nc(-c2ccc(OCCCN(CC)CC)cc2)cn1-c1ccc(Oc2ccc(Cl)cc2)cc1.O=C(O)[C@@H](O)[C@H](O)[C@H](O)[C@@H](O)C(=O)O [Galactarate Type A] &field=DSC Endo. (onset, ° C.) returns 158.4

GET /value?item= CCCCc1nc(-c2ccc(OCCCN(CC)CC)cc2)cn1-c1ccc(Oc2ccc(Cl)cc2)cc1.O=C1NS(=O)(=O)c2ccccc21 [Saccharinate Type A] &field=DSC Endo. (onset, ° C.) returns 120.0

GET /value?item= CCCCc1nc(-c2ccc(OCCCN(CC)CC)cc2)cn1-c1ccc(Oc2ccc(Cl)cc2)cc1.O=C(O)C(=O)O [Oxalate Type A] &field=DSC Endo. (onset, ° C.) returns 109.5

GET /value?item= CCCCc1nc(-c2ccc(OCCCN(CC)CC)cc2)cn1-c1ccc(Oc2ccc(Cl)cc2)cc1.O=C(O)C(O)C(O)C(=O)O [L-Tartrate Type A] &field=DSC Endo. (onset, ° C.) returns 76.4

GET /value?item= Br.CCCCc1nc(-c2ccc(OCCCN(CC)CC)cc2)cn1-c1ccc(Oc2ccc(Cl)cc2)cc1 [HBr salt Type A] &field=DSC Endo. (onset, ° C.) returns 169.9

Attention now turns to another entry.
GET /value?item= CCCCc1nc(-c2ccc(OCCCN(CC)CC)cc2)cn1-c1ccc(Oc2ccc(Cl)cc2)cc1.O=C(O)CNC(=O)c1ccccc1 [Hippurate Type A] &field=DSC Endo. (onset, ° C.) returns 72.7
